# target of assay: HSV polymerase (Human herpesvirus 1, UniProt P04293)
# Sequence (P04293 whole entry): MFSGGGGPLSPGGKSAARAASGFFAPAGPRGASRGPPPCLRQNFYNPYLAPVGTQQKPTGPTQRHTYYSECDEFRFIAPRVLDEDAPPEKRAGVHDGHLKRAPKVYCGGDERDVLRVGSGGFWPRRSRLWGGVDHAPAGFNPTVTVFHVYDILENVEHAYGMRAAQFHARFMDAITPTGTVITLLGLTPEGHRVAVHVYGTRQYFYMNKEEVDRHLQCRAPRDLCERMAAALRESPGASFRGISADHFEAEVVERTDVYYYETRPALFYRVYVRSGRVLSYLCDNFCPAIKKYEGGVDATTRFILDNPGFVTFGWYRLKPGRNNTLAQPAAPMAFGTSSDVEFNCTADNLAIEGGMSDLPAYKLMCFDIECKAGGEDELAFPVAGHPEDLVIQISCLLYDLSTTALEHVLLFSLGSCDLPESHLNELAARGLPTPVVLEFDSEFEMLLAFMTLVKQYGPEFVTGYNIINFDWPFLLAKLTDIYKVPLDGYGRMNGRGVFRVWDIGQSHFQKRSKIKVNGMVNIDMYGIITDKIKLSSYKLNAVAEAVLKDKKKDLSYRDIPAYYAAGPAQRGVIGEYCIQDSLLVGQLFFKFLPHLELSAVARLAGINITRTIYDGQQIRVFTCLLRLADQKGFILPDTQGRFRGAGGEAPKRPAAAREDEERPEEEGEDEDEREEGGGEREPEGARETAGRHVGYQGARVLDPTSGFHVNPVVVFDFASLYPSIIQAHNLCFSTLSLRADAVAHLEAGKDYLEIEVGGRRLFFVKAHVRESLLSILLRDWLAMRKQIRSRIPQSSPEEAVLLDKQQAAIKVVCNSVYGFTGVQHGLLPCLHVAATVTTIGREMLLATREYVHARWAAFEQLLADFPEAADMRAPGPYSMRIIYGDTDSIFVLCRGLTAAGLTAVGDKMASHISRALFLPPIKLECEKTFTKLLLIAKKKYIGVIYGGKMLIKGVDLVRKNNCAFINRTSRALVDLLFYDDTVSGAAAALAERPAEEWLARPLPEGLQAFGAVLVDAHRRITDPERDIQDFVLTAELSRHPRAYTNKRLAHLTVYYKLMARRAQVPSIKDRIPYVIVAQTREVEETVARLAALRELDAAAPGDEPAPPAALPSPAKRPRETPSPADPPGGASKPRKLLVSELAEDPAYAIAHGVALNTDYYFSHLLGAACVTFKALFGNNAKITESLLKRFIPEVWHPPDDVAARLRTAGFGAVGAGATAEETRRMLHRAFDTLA
# assay explanation: biochemical
# setup conditions: read-out: polymerase IC50 (μM) HSV
Structures can show the parent of a compound that is named as a salt.
quantity: IC50 (µM)

Worked cases, IC50 given:
CCN(CC)CCn1cc(C(=O)NCc2ccc(Cl)cc2)c(=O)c2cc(C#CCO)sc21 [Example 18, hydrochloride]: 0.95
O=C(NCc1ccc(Cl)cc1)c1cn(CCO)c2sc(C#CCO)cc2c1=O: 0.89

(I) CCn1cc(C(=O)NCc2ccc(Cl)cc2)c(=O)c2cc(C#CCCO)sc21
(II) O=C(NCc1ccc(Cl)cc1)c1cnc2sc(CCCO)cc2c1O
Lab notebook, comparison: I versus II , higher IC50 goes to which? Bench note: the answer is the label of the chosen record. I
(I: 3.2 µM, II: 0.91 µM)

Source listed as patent US6495683B2.
